test system: erythroid progenitor cells (EPCs); assay: Fetal hemoglobin (HbF) ELISA in day 7 erythroid progenitor cells; type: cell-based, human; conditions: Homo sapiens, Erythroid progenitor cell, HbF ELISA, day 7 EPCs, 5 days; read-out: EPC ELISA (pEC50 category) (converted);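 note: for fetal hemoglobin induction normalized to vehicle-treated cells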
Counter-ions that a name gives are not always drawn.
REPORTED_ENDPOINT: EC50

>>> value_observed("CCc1c(C#N)c(SCc2ccc(CNC(=O)CO)cc2)nc(N2CCC(O)C2)c1C#N (stereo not shown)")
"1000 to 31600 nM"
>>> value_observed("CCc1c(C#N)c(S[C@@H](C(N)=O)c2ccccc2)nc(N(C)CCO)c1C#N (single isomer, unassigned)")
"< 316 nM"
>>> value_observed("CCc1c(C#N)c(SC(C(N)=O)c2ccc(OC)cn2)nc(N(C)C)c1C#N (stereo not shown)")
"1000 to 31600 nM"
>>> value_observed("CCc1c(C#N)c(SC(C(N)=O)c2ccccc2)nc(N(C)CC(=O)N(CCO)CCO)c1C#N (stereo not shown)")
"316 to 1000 nM"
>>> value_observed("CCc1c(C#N)c(SC(C(N)=O)c2ccccc2)nc(N2CCC(F)(CN)CC2)c1C#N (stereo not shown) [Example 618, hydrochloride]")
"< 316 nM"
>>> value_observed("CCc1c(C#N)c(SC(C(N)=O)c2ccccc2)nc(N(C)CCN2CC[C@H](O)C2)c1C#N (stereo partly shown)")
"< 316 nM"
>>> value_observed("CCc1c(C#N)c(SCc2ccc(N(C)S(C)(=O)=O)cc2)nc(N(C)CCNCC(C)(C)C)c1C#N")
"< 316 nM"

----------
IC50 values by entry
target: UniProt P26358; test: DNMT1 biochemical activity, breaklight assay and/or SPA assay; conditions: breaklight assay and/or SPA assay, repeated experimental runs; read-out: average pIC50 against DNMT1 (converted)
REPORTED_ENDPOINT: IC50

>>> value_observed("N#Cc1c(SC(C(N)=O)c2ccccc2)nc(N2CCOCC2)c(C#N)c1C1CC1 (stereo not drawn)")
"316 to 1000 nM"
>>> value_observed("CCc1c(C#N)c(SCc2ccc(CNC(=O)CNC(=O)OC(C)(C)C)cc2)nc(N2CCCN(C)CC2)c1C#N")
"≥ 1000 nM"
>>> value_observed("CCc1c(C#N)c(SCc2ccc(OCCN(C)C)cc2)nc(N2CCCN(C)CC2)c1C#N")
"≥ 1000 nM"
>>> value_observed("CCc1c(C#N)c(SCc2ccc(CO)cc2)nc(N2CCCN(C)CC2)c1C#N")
"316 to 1000 nM"
>>> value_observed("CCNC(=O)NCc1ccc(CSc2nc(N3CCCN(C)CC3)c(C#N)c(CC)c2C#N)cc1")
"316 to 1000 nM"
>>> value_observed("CCc1c(C#N)c(SC(C(N)=O)c2ccccc2)nc(N2CCN(CCO)CC2)c1C#N (stereo not drawn)")
"≥ 1000 nM"

----------
IC50 values by entry
target: DNMT1 (Homo sapiens, UniProt P26358); assay: DNMT1 biochemical activity, breaklight assay and/or SPA assay; conditions: binned activity in either the breaklight or the SPA assay; read-out: DNMT1 BioChemical (pIC50 category) (converted)
Sequence (P26358 whole entry, looked up): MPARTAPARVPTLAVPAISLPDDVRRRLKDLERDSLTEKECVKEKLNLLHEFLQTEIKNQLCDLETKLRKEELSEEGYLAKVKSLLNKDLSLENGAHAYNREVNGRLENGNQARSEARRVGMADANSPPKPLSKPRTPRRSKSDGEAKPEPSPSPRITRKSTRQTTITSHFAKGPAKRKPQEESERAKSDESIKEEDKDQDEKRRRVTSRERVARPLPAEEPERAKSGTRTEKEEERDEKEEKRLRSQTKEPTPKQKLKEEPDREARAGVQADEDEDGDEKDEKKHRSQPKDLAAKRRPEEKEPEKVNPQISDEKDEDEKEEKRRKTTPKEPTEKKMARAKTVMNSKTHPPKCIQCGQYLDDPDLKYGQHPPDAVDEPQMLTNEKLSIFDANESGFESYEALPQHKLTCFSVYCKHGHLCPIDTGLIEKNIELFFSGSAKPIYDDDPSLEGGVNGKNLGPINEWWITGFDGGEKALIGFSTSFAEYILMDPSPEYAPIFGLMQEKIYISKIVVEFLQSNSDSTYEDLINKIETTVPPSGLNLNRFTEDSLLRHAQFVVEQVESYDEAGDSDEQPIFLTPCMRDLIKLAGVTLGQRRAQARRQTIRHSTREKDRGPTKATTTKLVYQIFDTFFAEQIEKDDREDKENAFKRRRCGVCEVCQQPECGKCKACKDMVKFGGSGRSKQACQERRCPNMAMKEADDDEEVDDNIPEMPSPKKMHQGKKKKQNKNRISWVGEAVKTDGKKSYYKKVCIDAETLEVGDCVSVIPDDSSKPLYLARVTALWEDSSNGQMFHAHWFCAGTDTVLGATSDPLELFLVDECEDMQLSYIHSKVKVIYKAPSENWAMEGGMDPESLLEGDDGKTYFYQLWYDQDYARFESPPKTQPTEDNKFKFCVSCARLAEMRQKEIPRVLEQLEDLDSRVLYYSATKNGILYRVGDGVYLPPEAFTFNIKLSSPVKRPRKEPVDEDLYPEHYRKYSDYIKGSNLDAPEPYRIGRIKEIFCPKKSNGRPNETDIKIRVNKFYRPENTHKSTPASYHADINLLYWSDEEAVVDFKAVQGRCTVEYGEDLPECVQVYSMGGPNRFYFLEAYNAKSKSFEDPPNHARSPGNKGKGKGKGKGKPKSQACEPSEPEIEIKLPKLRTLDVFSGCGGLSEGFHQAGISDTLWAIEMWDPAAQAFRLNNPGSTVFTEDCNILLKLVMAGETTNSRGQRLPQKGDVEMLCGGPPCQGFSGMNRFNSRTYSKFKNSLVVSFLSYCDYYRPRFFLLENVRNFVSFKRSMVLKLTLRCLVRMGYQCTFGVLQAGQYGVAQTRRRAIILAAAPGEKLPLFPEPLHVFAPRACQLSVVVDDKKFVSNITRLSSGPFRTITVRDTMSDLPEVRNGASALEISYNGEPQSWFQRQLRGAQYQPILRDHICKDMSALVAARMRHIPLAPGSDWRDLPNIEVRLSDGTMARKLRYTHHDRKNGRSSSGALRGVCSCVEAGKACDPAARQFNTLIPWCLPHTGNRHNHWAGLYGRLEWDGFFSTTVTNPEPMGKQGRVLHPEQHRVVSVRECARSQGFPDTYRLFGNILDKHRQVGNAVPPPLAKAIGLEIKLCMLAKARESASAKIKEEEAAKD
Structures can show the parent of a compound that is named as a salt.
REPORTED_ENDPOINT: IC50

>>> value_observed("N#Cc1c(SC(C(N)=O)c2ccccc2)nc(N2CCCN(CCO)CC2)c(C#N)c1CC(F)(F)F (stereo not shown)")
"316 to 1000 nM"
>>> value_observed("CCc1c(C#N)c(SCc2ccc(CC(=O)NCCO)cc2)nc(N(C)C)c1C#N")
"316 to 1000 nM"
>>> value_observed("CCc1c(C#N)c(SC(C(N)=O)c2ccccc2)nc(N2CCN(Cc3ccc[nH]3)CC2)c1C#N (stereo not shown)")
"316 to 1000 nM"
>>> value_observed("CCc1c(C#N)c(SC(C(N)=O)c2ccccc2)nc(N2CCC(O)C2)c1C#N (stereo not shown)")
"316 to 1000 nM"
>>> value_observed("CCc1c(C#N)c(SC(C(N)=O)c2cc(C)ccn2)nc(N2CCCN(C)CC2)c1C#N (stereo not shown)")
"316 to 1000 nM"
>>> value_observed("CC(Sc1nc(N2CCCNCC2)c(C#N)c(C2CC2)c1C#N)C(N)=O (stereo not shown)")
"316 to 1000 nM"
>>> value_observed("CCc1c(C#N)c(SC(C(N)=O)c2ccccc2)nc(N2CCC3(COC3)C2)c1C#N (stereo not shown)")
"316 to 1000 nM"
>>> value_observed("CCc1c(C#N)c(SCc2ccc(-c3cccnc3)cc2)nc(N2CCC(N3CCCC3)CC2)c1C#N")
"316 to 1000 nM"
>>> value_observed("N#Cc1c(SC(C(N)=O)c2ccncc2)nc(N2CC[C@H](O)C2)c(C#N)c1C1CC1 (stereo partly shown)")
"316 to 1000 nM"
>>> value_observed("CCc1c(C#N)c(SC(C(N)=O)c2ccccc2)nc(N2CCC(OP(=O)(O)O)CC2)c1C#N (stereo not shown)")
"1000 to 31600 nM"
>>> value_observed("CCc1c(C#N)c(SCc2ccc(=O)[nH]c2)nc(N(C)C)c1C#N")
"1000 to 31600 nM"
>>> value_observed("CCc1c(C#N)c(SC(C(N)=O)c2ccccc2)nc(N2CCC3(CCCN(CC4CC4)C3)CC2)c1C#N (stereo not shown) [Example 119, hydrochloride]")
"316 to 1000 nM"
>>> value_observed("CCc1c(C#N)c(SC(C(N)=O)c2ccccc2)nc(N2CC(OC)C2)c1C#N (stereo not shown)")
"316 to 1000 nM"
>>> value_observed("CCc1c(C#N)c(SC(C(N)=O)c2ccccc2)nc(N2CCN(C3CCNCC3)CC2)c1C#N (stereo not shown)")
"316 to 1000 nM"
>>> value_observed("CCc1c(C#N)c(SCc2ccc(CNC(C)=O)cc2)nc(N(C)Cc2nnc[nH]2)c1C#N")
"316 to 1000 nM"
>>> value_observed("CCc1c(C#N)c(N[C@@H](C(N)=O)c2ccccc2)nc(N2CCCN(CC)CC2)c1C#N")
"1000 to 31600 nM"

----------
EC50 values by entry
tested on: erythroid progenitor cells (EPCs); assay: Fetal hemoglobin (HbF) ELISA in day 7 erythroid progenitor cells; type: cell-based, human; conditions: Homo sapiens, Erythroid progenitor cell, HbF ELISA, day 7 EPCs, 5 days; read-out: EPC ELISA (pEC50 category) (converted);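 note: for fetal hemoglobin induction normalized to vehicle-treated cells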
Where a name gives a salt, the structure may show the parent alone.
REPORTED_ENDPOINT: EC50

>>> value_observed("N#Cc1c(SC(C(N)=O)c2ccccc2)nc(N2CCOC(CO)C2)c(C#N)c1C1CC1 (stereo not shown) [Example 63]")
"316 to 1000 nM"
>>> value_observed("N#Cc1c(SC(C(N)=O)c2ccncc2)nc(N2CCCNCC2)c(C#N)c1C1CC1 (stereo not shown) [Example 31]")
"> 31600 nM"
>>> value_observed("CCc1c(C#N)c(SCc2ccc(CNC(=O)CN)cc2)nc(N(C)C)c1C#N [Example 268]")
"1000 to 31600 nM"
>>> value_observed("CCc1c(C#N)c(SCc2ccc(CS(C)(=O)=O)cc2)nc(N2CCC(N)CC2)c1C#N [Example 499]")
"< 316 nM"
>>> value_observed("N#Cc1c(SC(C(N)=O)c2ccccc2)nc(N2CC(NC(=O)[C@@H](N)CO)C2)c(C#N)c1C1CC1 (stereo partly shown) [Example 611]")
"1000 to 31600 nM"
>>> value_observed("CCc1c(C#N)c(SC(C(N)=O)c2ccccc2)nc(N(C)CC(=O)N2C[C@H](CO)[C@@H](O)C2)c1C#N (stereo partly shown) [Example 664]")
"1000 to 31600 nM"
>>> value_observed("CCc1c(C#N)c(SCc2ccc(CNC(C)=O)cc2)nc(N2CCC(NC(C)=O)CC2)c1C#N [Example 290]")
"1000 to 31600 nM"
>>> value_observed("CCc1c(C#N)c(SCc2ccc(NC(=O)OC(C)(C)C)cc2)nc(N2CCCN(C)CC2)c1C#N [Example 296]")
"> 31600 nM"
>>> value_observed("CCc1c(C#N)c(SC(C(N)=O)c2ccccc2)nc(N2CC[C@@H](N)[C@H](F)C2)c1C#N (relative stereo) [Example 508]")
"< 316 nM"
>>> value_observed("CCc1c(C#N)c(SCc2ccc(CNC(=O)CO)cc2)nc(N(C)C)c1C#N [Example 278]")
"1000 to 31600 nM"
>>> value_observed("CCc1c(C#N)c(SC(C(N)=O)c2ccccc2)nc(N2CCC(C#N)CC2)c1C#N (stereo not shown) [Example 319]")
"316 to 1000 nM"
>>> value_observed("CCc1c(C#N)c(SC(C(N)=O)c2ccccc2)nc(N2CCC(NCc3cccc(OC)n3)CC2)c1C#N (stereo not shown) [Example 456]")
"< 316 nM"
>>> value_observed("CCc1c(C#N)c(SC(C(N)=O)c2ccccc2)nc(N(C)CCO)c1C#N (stereo not shown) [Example 147]")
"316 to 1000 nM"
>>> value_observed("CCc1c(C#N)c(SC(C(N)=O)c2ccccc2)nc(N2CC(OC(N)=O)C2)c1C#N (stereo not shown) [Example 259]")
"316 to 1000 nM"
>>> value_observed("CCc1c(C#N)c(S[C@@H](C(N)=O)c2ccccc2)nc(N2CC[C@H](NC(=O)OC(C)(C)C)[C@H](O)C2)c1C#N [Example 537]")
"316 to 1000 nM"
>>> value_observed("CN(CC(=O)N(CCO)CCO)c1nc(SC(C(N)=O)c2ccccc2)c(C#N)c(C2CC2)c1C#N (stereo not shown) [Example 641]")
"1000 to 31600 nM"
>>> value_observed("CCc1c(C#N)c(SCc2ccc(CNC(=O)[C@H](C)N)cc2)nc(N2CCCN(C)CC2)c1C#N [Example 97]")
"> 31600 nM"
>>> value_observed("CCc1c(C#N)c(SC(C(N)=O)c2ccccc2)nc(N2CCN(Cc3cc[nH]c3)CC2)c1C#N (stereo not shown) [Example 182]")
"316 to 1000 nM"
>>> value_observed("CCc1c(C#N)c(S[C@H](C(N)=O)c2ccccc2)nc(N2CC[C@H](OP(=O)(O)O)C2)c1C#N [Example 417]")
"> 31600 nM"
>>> value_observed("CCc1c(C#N)c(SCc2ccc(CC(=O)O)cc2)nc(N2CCCN(C)CC2)c1C#N [Example 72]")
"> 31600 nM"
>>> value_observed("N#Cc1c(N)nc(SC(C(N)=O)c2ccccc2)c(C#N)c1C1CC1 (stereo not shown) [Example 51]")
"> 31600 nM"
>>> value_observed("CCc1c(C#N)c(SC(C(N)=O)c2ccccc2)nc(N(C)CCN2CC[C@@H](N)C2)c1C#N (stereo partly shown) [Example 529]")
"316 to 1000 nM"
>>> value_observed("CCc1c(C#N)c(SC(C(N)=O)c2ccccc2)nc(N2CCC(NC)CC2)c1C#N (stereo not shown) [Example 547]")
"< 316 nM"
>>> value_observed("CCc1c(C#N)c(SC(C(N)=O)c2ccccc2)nc(N2CCC(OC3COC3)CC2)c1C#N (stereo not shown) [Example 231]")
"316 to 1000 nM"
>>> value_observed("CCc1c(C#N)c(SC(C(N)=O)c2ccccc2)nc(N2CCC(NC3CC3)C(F)C2)c1C#N (stereo not shown) [Example 527]")
"< 316 nM"
>>> value_observed("CCc1c(C#N)c(SC(C(N)=O)c2ccc(Cl)cc2)nc(N(C)C)c1C#N (stereo not shown) [Example 128]")
"316 to 1000 nM"
>>> value_observed("CCc1c(C#N)c(SC(C(N)=O)c2ccccc2)nc(N(C)CC(=O)NCC(C)(C)CO)c1C#N (stereo not shown) [Example 685]")
"316 to 1000 nM"
>>> value_observed("CCc1c(C#N)c(SC(C(N)=O)c2ccccc2)nc(N2CC(OC)C2)c1C#N (stereo not shown) [Example 54]")
"1000 to 31600 nM"
>>> value_observed("CCc1c(C#N)c(SC(C(N)=O)c2cccc(N3CCCC3)c2)nc(N2CCCN(C)CC2)c1C#N (stereo not shown) [Example 247]")
"316 to 1000 nM"
>>> value_observed("CCc1c(C#N)c(SC(C(N)=O)c2ccccc2)nc(N2CC[C@@H](N)[C@@H](F)C2)c1C#N (relative stereo) [Example 545]")
"< 316 nM"
>>> value_observed("CCc1c(C#N)c(SCc2cnn(CC(O)CO)c2)nc(N2CCC(N)CC2)c1C#N (stereo not shown) [Example 380, Hydrochloride]")
"1000 to 31600 nM"
